Each record here notes measured Percentage of compound bound to DOPG vesicles (pelleted).
experiment: Ultracentrifugation for compound-vesicle binding; details: 100 μM compound, 1 mM DOPG vesicles, 30 min, ultracentrifugation 1 h 40 000 rpm

Field: example entries. Status: answers known.
{"compound": "[H]/N=C(\\N/C(=N/[H])NCCCCCCNC(=N)NC(=N)Nc1ccc(Cl)cc1)Nc1ccc(Cl)cc1 [A1, Chlorhexidine]", "readout_value": "60–95%"}
{"compound": "COc1ccccc1CNCCCCCCNCCCCCCCCNCCCCCCNCc1ccccc1OC [A6, Methoctramine]", "readout_value": "60–95%"}
{"compound": "O=C(O[C@@H]1Cc2c(O)cc(O)cc2O[C@@H]1c1cc(O)c(O)c(O)c1)c1cc(O)c(O)c(O)c1 [EGCG]", "readout_value": "0–2%"}

[Q] Fill in the blank: the reported Percentage of compound bound to DOPG vesicles (pelleted) of CC(C)(C)CC(C)(C)c1ccc(OCCOCC[N+](C)(C)Cc2ccccc2)cc1 [A3, Benzethonium] is ____.
[A] 60–95%

[Q] Same lookup for Cc1cc(C(C)(C)CC(C)(C)C)ccc1OCCOCC[N+](C)(C)Cc1ccccc1 [A2, Methyl benzethonium] , please.
[A] 60–95%

[Q] Follow-up item: N.N.[Cl][Pt][Cl] [A8, Cisplatin]
[A] 0–2%

====

target: αSOs-Alexa488 binding to DOPG liposomes (Homo sapiens); assay: FIDA αSO-vesicle binding inhibition assay; conditions: 5 μM compound, 50 μM DOPG; αSO-vesicle complex without compound ∼60 nm
Quick reference for Apparent size (Rh) of αSOs-Alexa488 in the presence of DOPG liposomes and compound among some compounds

{"smiles_structure": "Cc1cc(C(C)(C)CC(C)(C)C)ccc1OCCOCC[N+](C)(C)Cc1ccccc1", "readout_value": "~10 nm"}

[Q] Query: Apparent size (Rh) of αSOs-Alexa488 in the presence of DOPG liposomes and compound; subject: COc1ccccc1CNCCCCCCNCCCCCCCCNCCCCCCNCc1ccccc1OC
[A] ~10 nm

[Q] How about this compound: O=C(O[C@@H]1Cc2c(O)cc(O)cc2O[C@@H]1c1cc(O)c(O)c(O)c1)c1cc(O)c(O)c(O)c1
[A] 50 nm

[Q] Then [H]/N=C(\N/C(=N/[H])NCCCCCCNC(=N)NC(=N)Nc1ccc(Cl)cc1)Nc1ccc(Cl)cc1 ?
[A] ~10 nm

All figures here come from paper PMC10016340.
